These data points were gathered from patent US5760036A.

Target: HIV protease (Human immunodeficiency virus type 1 group M subtype B, UniProt P04585)
Construct: and purified protease
Assay: HIV Protease Assay
Type: biochemical
Settings: pH 5.5, 10 μM inhibitor, 4% DMSO, 450 μM substrate, pH 5.5, 30 minutes at 37° C., RP-HPLC; read-out: HIV Protease % Inhibition at 10 μM
readout_label: inhibition at 10 µM (%)

Ask | Fill in: inhibition at 10 µM of CC(C)(C)OC(=O)N[C@@H](Cc1ccccc1)[C@H](O)CNC[C@@H](O)[C@H](Cc1ccccc1)NC(=O)O[C@@H]1COC[C@H]1O is ___
Reply | 85

I: CC(C)(C)OC(=O)N[C@@H](Cc1ccccc1)[C@H](O)CNC[C@@H](O)[C@H](Cc1ccccc1)NC(=O)OC1COC1
II: CC(C)(C)OC(=O)N[C@@H](Cc1ccccc1)[C@H](O)CNC[C@@H](O)[C@@H](Cc1ccccc1)NC(=O)OC(C)(C)C [Compound 26i]
Ask | Between I and II , which one shows the smaller inhibition at 10 µM number? Bench note: the answer is the label of the chosen record.
Reply | II
(II: 57%, I: 93%)
